Every entry's value here was drawn from the supplement of paper PMC6757056.

B1: library; a variant is named by its letters at N, in order (parent)
chain: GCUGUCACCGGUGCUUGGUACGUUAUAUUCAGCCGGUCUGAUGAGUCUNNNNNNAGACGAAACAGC

# Variants of: B1
# TEST: normalized RNA/DNA level without ligand (relative to sTRSVctl = 100) (log10 (% of sTRSVctl)); HEK293T overexpressing SLC46A1; higher = less ribozyme self-cleavage, higher mRNA level
# TEST_CONTEXT: without (6R,S)-folinic acid; ligand present: no
OUTCOME_MEASURE: normalized RNA/DNA level without ligand (log10)
Keep the answer to the number alone.

CUGAGU: 2.05
UUUCAU: 1.99
CACAUU: 2.02
CUUGUG: 2.02

stdin: I have this variant here, GGAGUU , and I need its recorded normalized RNA/DNA level without ligand (log10).
stdout: 2.01

stdin: I have this variant here, UCUCAU , and I need its recorded normalized RNA/DNA level without ligand (log10).
stdout: 2.03

stdin: I have this variant here, UACCUC , and I need its recorded normalized RNA/DNA level without ligand (log10).
stdout: 2.05
